Origin of values: ChEMBL document CHEMBL2062428

- Target: Prostaglandin G/H synthase 2 (Mus musculus)
- Sequence (whole entry): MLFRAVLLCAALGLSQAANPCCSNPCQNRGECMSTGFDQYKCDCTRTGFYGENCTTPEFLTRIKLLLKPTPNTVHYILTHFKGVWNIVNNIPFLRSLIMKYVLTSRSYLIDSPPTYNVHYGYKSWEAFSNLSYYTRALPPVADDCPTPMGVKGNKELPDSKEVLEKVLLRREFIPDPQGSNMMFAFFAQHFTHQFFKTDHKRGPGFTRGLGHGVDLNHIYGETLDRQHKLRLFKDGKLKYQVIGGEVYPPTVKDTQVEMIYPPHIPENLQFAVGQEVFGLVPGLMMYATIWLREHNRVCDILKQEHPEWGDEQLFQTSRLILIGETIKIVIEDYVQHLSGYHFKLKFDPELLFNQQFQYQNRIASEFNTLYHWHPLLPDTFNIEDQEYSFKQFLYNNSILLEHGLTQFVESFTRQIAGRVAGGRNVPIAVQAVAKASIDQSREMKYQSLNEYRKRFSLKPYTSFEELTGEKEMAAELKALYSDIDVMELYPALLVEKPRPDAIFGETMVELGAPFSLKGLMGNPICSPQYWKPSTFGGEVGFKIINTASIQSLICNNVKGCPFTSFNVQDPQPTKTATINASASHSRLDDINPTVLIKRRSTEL
- Protocol Notes: Inhibition of mouse COX-2 using [14C] arachidonic acid as substrate at 4 uM preincubated for 17 mins before substrate addition measured after 3 mins by thin-layer chromatographic analysis
Each entry below carries its recorded inhibition.

Lab note: Prostaglandin G/H synthase 2 (Mus musculus) assay, enter inhibition for O=C(CC1=C/C(=C\c2ccc(-c3ccccc3)cc2)c2ccc(F)cc21)NS(=O)(=O)C(F)(F)F here
15%

Lab note: Prostaglandin G/H synthase 2 (Mus musculus) assay, enter inhibition for CCOC(=O)CC1=C/C(=C\c2ccc(-c3ccccc3)cc2)c2ccc(F)cc21 here
28%

Lab note: Prostaglandin G/H synthase 2 (Mus musculus) assay, enter inhibition for CSc1ccc(/C=C2\C=C(CC(=O)NS(=O)(=O)c3ccc(F)cc3)c3cc(F)ccc32)cc1 here
20%

Lab note: Prostaglandin G/H synthase 2 (Mus musculus) assay, enter inhibition for O=C(O)CC1=C/C(=C\c2cccc3ccccc23)c2ccc(F)cc21 here
7%

Lab note: Prostaglandin G/H synthase 2 (Mus musculus) assay, enter inhibition for COc1ccc2c(c1)C(CC(=O)O)=C/C2=C\c1ccc(-c2ccccc2)cc1 here
2%

Lab note: Prostaglandin G/H synthase 2 (Mus musculus) assay, enter inhibition for CSc1ccc(/C=C2\C=C(CC(=O)NS(=O)(=O)c3ccc(C(C)C)cc3)c3cc(F)ccc32)cc1 here
2%

* * *

- Target: Prostaglandin G/H synthase 2 (Mus musculus)
pIC50: −log10 of the molar value.
Property Label: pIC50

Retrieve pIC50 measured for O=C(O)CC1=C/C(=C\c2ccc(-c3ccccc3)cc2)c2ccc(F)cc21 and print it.
< 5.40

* * *

- Target: Prostaglandin G/H synthase 1 (Ovis aries)
- Sequence (whole entry): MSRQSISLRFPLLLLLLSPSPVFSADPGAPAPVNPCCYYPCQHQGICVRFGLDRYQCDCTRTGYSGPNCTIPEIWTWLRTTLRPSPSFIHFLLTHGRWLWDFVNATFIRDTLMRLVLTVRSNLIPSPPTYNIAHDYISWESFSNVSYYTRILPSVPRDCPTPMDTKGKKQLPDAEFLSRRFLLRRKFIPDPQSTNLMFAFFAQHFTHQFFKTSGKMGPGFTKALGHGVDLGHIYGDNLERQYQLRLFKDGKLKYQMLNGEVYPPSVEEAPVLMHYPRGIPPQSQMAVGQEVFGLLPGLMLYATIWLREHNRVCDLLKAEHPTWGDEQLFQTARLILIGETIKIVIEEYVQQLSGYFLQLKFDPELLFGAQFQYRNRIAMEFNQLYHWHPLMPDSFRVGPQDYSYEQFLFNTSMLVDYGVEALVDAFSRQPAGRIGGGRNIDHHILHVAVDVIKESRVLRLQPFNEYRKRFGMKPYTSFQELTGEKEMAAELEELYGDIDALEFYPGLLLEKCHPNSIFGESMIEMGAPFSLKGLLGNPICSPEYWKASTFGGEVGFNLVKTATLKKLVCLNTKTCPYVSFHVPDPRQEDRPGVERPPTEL
- Protocol Notes: Inhibition of ovine COX-1 using [14C] arachidonic acid as substrate at 4 uM preincubated for 17 mins before substrate addition measured after 3 mins by thin-layer chromatographic analysis
Property Label: inhibition (%)
Reply numerically in %, unit not repeated.

                                   compound  property_label  readout_unit  result
0  O=C(CC1=C/C(=C\c2ccc(-c3ccccc3)cc2)c2ccc(F)cc21)NS(=O)(=O)C(F)(F)F      inhibition             %      99
1  C#CCOc1ccc(/C=C2\C=C(CC(=O)O)c3cc(F)ccc32)cc1OCC      inhibition             %      68
2  O=C(O)CC1=C/C(=C\c2ccc(-c3ccccc3)nc2)c2ccc(F)cc21      inhibition             %      55
3  COC(=O)CC1=C/C(=C\c2ccc(SC)cc2)c2ccc(F)cc21      inhibition             %      39
4  CSc1ccc(-c2ccc(/C=C3\C=C(CC(=O)O)c4cc(F)ccc43)cc2)cc1      inhibition             %      68
5  O=C(O)CC1=C/C(=C\c2cccc3cccnc23)c2ccc(F)cc21      inhibition             %      51
6  COc1ccc2c(c1)C(CC(=O)O)=C/C2=C\c1ccc(-c2ccccc2)cc1      inhibition             %      38
7  O=C(O)CC1=C/C(=C\c2cccc(-c3ccc(F)cc3)n2)c2ccc(F)cc21      inhibition             %      17
8  CCOC(=O)C(C)C1=C/C(=C\c2ccc(-c3ccccc3)cc2)c2ccc(F)cc21 (stereo not given)      inhibition             %      30

Retrieve inhibition measured for COc1ccc(/C=C2\C=C(CC(=O)O)c3cc(F)ccc32)cc1 and print it.
62

* * *

Each entry below carries its recorded inhibition.
- Target: Prostaglandin G/H synthase 2 (Mus musculus) (UniProt Q05769)
- Protocol Notes: Inhibition of mouse COX-2 using [14C] arachidonic acid as substrate at 4 uM preincubated for 17 mins before substrate addition measured after 3 mins by thin-layer chromatographic analysis
Reply numerically in %, unit not repeated.

The examples below pair each entry with its known result.
                                   compound                                    target  property_label  result
0  O=C(O)CC1=C/C(=C\c2ccc(C(=O)O)cc2)c2ccc(F)cc21  Prostaglandin G/H synthase 2 (Mus musculus) (UniProt Q05769)      inhibition       0
1  O=C(O)CC1=C/C(=C\c2ccc(-c3ccc(C(F)(F)F)cc3)cc2)c2ccc(F)cc21  Prostaglandin G/H synthase 2 (Mus musculus) (UniProt Q05769)      inhibition      15
2  O=C(O)CC1=C/C(=C\c2ccc([S+]([O-])C(F)(F)F)cc2)c2ccc(F)cc21 (stereo not given)  Prostaglandin G/H synthase 2 (Mus musculus) (UniProt Q05769)      inhibition      15

Retrieve inhibition measured for CSc1ccc(/C=C2\C=C(CC(=O)NS(=O)(=O)c3ccc(Cl)s3)c3cc(F)ccc32)cc1 and print it.
34

Retrieve inhibition measured for O=C(O)CC1=C/C(=C\c2ccc(SC(F)(F)F)cc2)c2ccc(F)cc21 and print it.
35

Retrieve inhibition measured for CCOC(=O)CC1=C/C(=C\c2ccc(SC)cc2)c2ccc(F)cc21 and print it.
0

* * *

- Tested on: OVCAR-3
- Protocol Notes: Cytotoxicity against human OVCAR3 cells after 2 days by WST1 assay
- Type: functional, cell-based
- Assay Context: OVCAR-3, 48 h
Each entry below carries its recorded EC50.

Retrieve EC50 measured for O=C(O)CC1=C/C(=C\c2ccc(-c3ccccc3)cc2)c2ccc(F)cc21 and print it.
132 µM

Retrieve EC50 measured for CC1=C(CC(=O)O)c2cc(F)ccc2/C1=C/c1ccc([S+](C)[O-])cc1 (stereo not drawn) [SULINDAC SULFOXIDE] and print it.
210 µM

Retrieve EC50 measured for CSc1ccc(/C=C2\C=C(CC(=O)O)c3cc(F)ccc32)cc1 and print it.
223 µM

* * *

- Target: Prostaglandin G/H synthase 2 (Mus musculus) (UniProt Q05769)
- Protocol Notes: Inhibition of mouse COX-2 using [14C] arachidonic acid as substrate at 4 uM preincubated for 17 mins before substrate addition measured after 3 mins by thin-layer chromatographic analysis
Property Label: inhibition (%)
Reply numerically in %, unit not repeated.

In [3]: df
Out[3]:
                                   compound  readout_unit  result
0  CSc1ccc(/C=C2\C=C(CC(=O)NS(=O)(=O)c3ccc(C(C)=O)cc3)c3cc(F)ccc32)cc1             %      26

Retrieve inhibition measured for O=C(O)CC1=C/C(=C\c2cccc(-c3cccs3)n2)c2ccc(F)cc21 and print it.
28

Retrieve inhibition measured for CSc1ccc(/C=C2\C=C(CC(=O)NS(=O)(=O)c3ccccc3C)c3cc(F)ccc32)cc1 and print it.
36

Retrieve inhibition measured for CC(C)(C)Oc1ccc(/C=C2\C=C(CC(=O)O)c3cc(F)ccc32)cc1 and print it.
5

Retrieve inhibition measured for CSc1ccc(/C=C2\C=C(CC(=O)NS(=O)(=O)c3ccc(C(F)(F)F)cc3)c3cc(F)ccc32)cc1 and print it.
19

Retrieve inhibition measured for C[S+]([O-])c1ccc(/C=C2\C=C(CC(=O)O)c3cc(F)ccc32)cc1 (centres undefined) and print it.
8.5

Retrieve inhibition measured for O=C(O)CC1=C/C(=C\c2ccc(F)c3ccccc23)c2ccc(F)cc21 and print it.
22

Retrieve inhibition measured for O=C(O)CC1=C/C(=C\c2ccc3ccccc3c2)c2ccc(F)cc21 and print it.
34

Retrieve inhibition measured for O=C(O)CC1=C/C(=C\c2cnc(-c3ccccc3)nc2)c2ccc(F)cc21 and print it.
8
